Values were extracted from patent US8124766B2.

# System: DGAT
# PROTOCOL_TEXT: DGAT Phospholipid FlashPlate Assay
# Assay type: biochemical
# EXPERIMENTAL_CONDITIONS: DGAT pellet, DAG-coated PL-FlashPlate, 14C-Pal-CoA, 37° C. for 1 hour; read-out: DGAT Inhibition Activity IC50
Where a name gives a salt, the structure may show the parent alone.
Entries and their measured pIC50 follow.
The value called pIC50 is obtained by taking minus log10 of the concentration in mol/L.

Request: Provide pIC50 value for the following compound: CCOC(=O)N1CC[C@H](Nc2ccc(NC(=O)c3cc4cc(Br)ccc4s3)cn2)C1 [Example 46, hydrochloride]
Response: 6.52

Request: Tell me measured pIC50 for CCOc1cccc2c1cc(C(=O)Nc1ccc(N3CCN(C(=O)CC(C)(C)C(=O)O)CC3)cc1)n2CC please.
Response: 6.31
